Target: Human immunodeficiency virus type 1 reverse transcriptase (Human immunodeficiency virus 1, UniProt Q72547, K103N)
Assay: Inhibition of HIV1 reverse transcriptase K103N mutant in 293T cells
measure: IC50

Data point: COC(=O)C1=C(N2CCCC2)C2c3ccccc3SC12C(=O)OC (stereo unspecified) ; IC50 = > 30 µM

====

Target: Human immunodeficiency virus type 1 reverse transcriptase (Human immunodeficiency virus 1, UniProt Q72547)
Test: Inhibition of wild type HIV1 reverse transcriptase in 293T cells
measure: pIC50
// pIC50 is dimensionless: -log10 of concentration (M)

Example entries begin here.
In [3]: df
Out[3]:
                                   molecule  test_value
0  COC(=O)C1=C(N2CCCC2)[C@H]2c3ccccc3S[C@@]12C(=O)OC        6.10
1  COC(=O)C1=C(N2CCC[C@H]2C)[C@@H]2c3ccccc3S[C@]12C(=O)OC        4.96
2  COC(=O)C1=C(N2CCCC2)C2c3ccccc3SC12C(=O)OC (centres undefined)        5.92
3  COC[C@H]1CCCN1C1=C(C(=O)OC)[C@]2(C(=O)OC)Sc3ccccc3[C@H]12        4.42
4  COC(=O)C1=C(N2CCCCC2)[C@H]2c3ccccc3S[C@@]12C(=O)OC        5.11
5  COC(=O)C1=C(N2CCC[C@@H]2C)[C@H]2c3ccccc3S[C@@]12C(=O)OC        5.64

Data point: COC(=O)C1=C(N2CCCCC2)C2c3ccccc3SC12C(=O)OC (centres undefined) ; pIC50 = 5.05

Data point: COC[C@H]1CCCN1C1=C(C(=O)OC)C2(C(=O)OC)Sc3ccccc3C12 (some centres undefined) ; pIC50 = 4.32

Data point: COC(=O)C1=C(N2CC=CC2)C2c3ccccc3SC12C(=O)OC (centres undefined) ; pIC50 = 5.29

Data point: COC(=O)C1=C(N2CCC[C@H]2C)[C@H]2c3ccccc3S[C@@]12C(=O)OC ; pIC50 = 6.30

====

Target: Human immunodeficiency virus type 1 reverse transcriptase (Human immunodeficiency virus 1, UniProt Q72547)
Assay: Inhibition of wild type HIV1 reverse transcriptase in 293T cells
measure: IC50

In [3]: df
Out[3]:
                                   compound  measure  test_value
0  COC(=O)C1=C(N2CCCC2)[C@@H]2c3ccccc3S[C@]12C(=O)OC     IC50     > 20 µM
1  CC(C)(C)OC(=O)C1=C(N2CCCC2)C2c3ccccc3SC12C(=O)OC(C)(C)C (centres undefined)     IC50     > 20 µM
2  COC[C@H]1CCCN1C1=C(C(=O)OC)[C@@]2(C(=O)OC)Sc3ccccc3[C@@H]12     IC50     > 50 µM

Data point: COC(=O)C1=C(N2CCC2)C2c3ccccc3SC12C(=O)OC (centres undefined) ; IC50 = > 10 µM

====

Target: Human immunodeficiency virus type 1 reverse transcriptase (Human immunodeficiency virus 1, UniProt Q72547)
Assay: Inhibition of wild type HIV1 reverse transcriptase in 293T cells
measure: IC50

Data point: CCOC(=O)C1=C(N2CCCC2)[C@H]2c3ccccc3S[C@@]12C(=O)OCC ; IC50 = > 20 µM

Data point: COC(=O)C1=C(N2CCCCC2)[C@@H]2c3ccccc3S[C@]12C(=O)OC ; IC50 = > 40 µM

Data point: COC(=O)C1=C(N2CCC[C@@H]2C)[C@@H]2c3ccccc3S[C@]12C(=O)OC ; IC50 = > 25 µM

Data point: CCOC(=O)C1=C(N2CCCC2)[C@@H]2c3ccccc3S[C@]12C(=O)OCC ; IC50 = > 20 µM

Data point: CCOC(=O)C1=C(N2CCCC2)C2c3ccccc3SC12C(=O)OCC (stereo not given) ; IC50 = > 20 µM
